Reference source: PubChem BioAssay AID938

Experiment: qHTS Assay for Agonists of the Thyroid Stimulating Hormone Receptor: Activators of Intracellular cAMP Concentrations in Parental HEK 293; further: nearly all actives have a fitted effect of over 55% in size; further: potency means the concentration at half of the fitted maximal effect
Conditions: parental HEK293 CNG cAMP sensor, membrane potential fluorescence; series mostly up to 57.1 µM
Among all 73,000 compounds or so, about 1,800 (2.5%) were called active. About 13% were inconclusive and are not listed. For the sample, actives were picked, then their nearest neighbours and some compounds at random.
VALUE TYPE: Potency

Example cases with answers are listed next.
# COMPOUND, Potency
records = [
    ("O=[N+]([O-])c1ccc(Cl)c(Cl)c1", "inactive"),
    ("CCCCC#N", "inactive"),
    ("Fc1ccc(C(OCCN2CCN(C/C=C\\c3ccccc3)CC2)c2ccc(F)cc2)cc1", "inactive"),
    ("C[C@@]1([C@@H](NP(=O)(c2ccccc2)c2ccccc2)c2ccccc2)C[C@H]1CCO", "15.8 µM (active)"),
    ("C/C(CCc1c[nH]c2ccccc12)=N\\O", "inactive"),
]

Can you share its Potency? I mean this compound: c1ccc(C2NCc3ccccc3-n3cccc32)cc1 (stereo not given)
25.1 µM (active)

Given the compound `N#CCCCl` , what is its reported Potency?
inactive

So what does the record say about Potency for COc1ccc(C2NCc3ccc4c(c3-n3cccc32)OCO4)cc1OC (stereo not given) ?
inactive

Consider the compound shown here: O=C1C2(Cl)C3(Cl)C4(Cl)C(Cl)(Cl)C5(Cl)C3(Cl)C1(Cl)C5(Cl)C24Cl (stereo not given) What is its recorded Potency?
inactive

Can you share its Potency? I mean this compound: CC(C)CC(C)Nc1ccc(Nc2ccccc2)cc1 (stereo not given)
inactive
